System: Wolbachia pipientis
test.summary: Anti-Wolbachia Cell-Based Screen
Type: functional
Parameters: scale not given: in the data most compounds retested in dose-response had high values
run.conditions: 5 µM
About 13,000 (27%) of roughly 48,000 compounds showed an effect of 50% or more. Some of the results follow.
reported.endpoint: Percent Effect
Quote the value and follow it with the unit of measurement.

- compound: "Cc1ccc(CN2CCN(Cc3ccncc3)[C@@H]3CS(=O)(=O)C[C@@H]32)cc1"
  Percent Effect: "9.085%"
- compound: "O=S(=O)(CC1CCCN1S(=O)(=O)c1cccnc1)c1ccccc1 (configuration not stated)"
  Percent Effect: "115.5%"
- compound: "CS(=O)(=O)N1CCCCC1CCc1ccc(O)cc1 (configuration not stated)"
  Percent Effect: "6.219%"
- compound: "CCCc1c(C(=O)N2CCN(c3nccc(OC)n3)CC2)cnn1C"
  Percent Effect: "3.097%"
- compound: "NC1CCCCN(Cc2ccccc2CS(=O)(=O)c2ccccc2)C1 (configuration not stated)"
  Percent Effect: "-12.21%"

Prompt: Please report the recorded Percent Effect for CC(C)Cn1cnc(S(=O)(=O)NCCc2nnc3ccccn23)c1 .
Response: 8.202%

Prompt: Fill blank: measured Percent Effect of the compound Cc1cccnc1[C@H](C)Nc1nc(-c2cccnc2)nc2c1CNC2 is ____.
Response: -9.004%

====

System: Wolbachia pipientis
test.summary: Anti-Wolbachia Cell-Based Screen
Format: functional
Design: scale not given: in the data most compounds retested in dose-response had high values
run.conditions: 5 µM
Among all 48,000 compounds or so, about 13,000 (27%) showed an effect of 50% or more. This is one part of the list.
reported.endpoint: Percent Effect (%)
Kindly answer with a numeric value in %, unit omitted.

Example compounds with recorded Percent Effect:
- compound: "Cc1cccc(N(C)Cc2nc3c(cnn3C)c(=O)[nH]2)c1C"
  Percent Effect, %: -8.766
- compound: "CSC(C)C(=O)N1CCCN(Cc2cscn2)CC1 (centres undefined)"
  Percent Effect, %: -14.88
- compound: "CCn1ncc(C(=O)N2CCCN(CCCc3ccccc3)CC2)c1C"
  Percent Effect, %: 5.21

Now consider the entry below.
Prompt: Reported Percent Effect for COc1ccccc1NC(=O)NCCCC(=O)Nc1cn[nH]c1 : what is it?
Response: 3.089

====

Tested on: Wolbachia pipientis
test.summary: Anti-Wolbachia Cell-Based Screen
Type: functional
Set-up: scale not given: in the data most compounds retested in dose-response had high values
run.conditions: 5 µM
About 13,000 (27%) of roughly 48,000 compounds showed an effect of 50% or more. The list shows a part of the results.
reported.endpoint: Percent Effect (%)
Kindly provide the numeric value in % only, without the unit symbol.

Example entries and their recorded answers appear below.
- compound: "Cc1cc(C)c(CNC(=O)NCCNc2cnccn2)c(=O)[nH]1"
  reported.endpoint: "Percent Effect"
  test.result: 6.343
- compound: "Cc1cccc(C(C)(C)CNc2cn[nH]c(=O)c2Cl)c1"
  reported.endpoint: "Percent Effect"
  test.result: 26.78
- compound: "Cc1nccn1C1CCCN(C(=O)Cc2cn3ccccc3n2)C1 (stereo not drawn)"
  reported.endpoint: "Percent Effect"
  test.result: 129.5
- compound: "COc1cccc(OCCNS(C)(=O)=O)c1"
  reported.endpoint: "Percent Effect"
  test.result: 78.58
- compound: "O=C([C@H]1CC[C@@H]2[C@@H](CCN2c2ncccn2)O1)N1CCCCO1"
  reported.endpoint: "Percent Effect"
  test.result: 84.25

Prompt: Query (compound): O=C(O)C(F)(F)F.O=C([C@@H]1CC[C@@H]2[C@@H](CCN2c2ccncn2)O1)N1CCCCO1 ; field requested: Percent Effect
Response: 117.6

Prompt: Sample Cc1c(Cl)c(CN2CCCC2Cn2cncn2)nc2ccccc12 (stereo not drawn) — what was its Percent Effect?
Response: 0.2475

Prompt: GET /values?readout=Percent Effect&item= CCc1nccn1C1CCCN(C(=O)Cc2n[nH]c3ccccc23)C1 (stereo not drawn)
Response: -2.139
